- System: Plasmodium berghei
- MEASUREMENT NOTES: Screen against P. berghei liver stage (PbLuc), transformed with Luciferase, at 2uM
- Format: functional, HepG2
- SETUP CONDITIONS: tested at 2 uM
About 2,700 (4%) of roughly 68,000 compounds showed an effect of 50% or more. The sample holds strong results, similar compounds and a random draw of the others, so the mix is not that of the screen.
QUANTITY: INHIBITION (%)
State the answer as a number, implicitly in %.

{"SMILES TEXT": "CCc1nc(CN2CCCN(c3ncnc4sccc34)CC2)no1", "QUANTITY": "INHIBITION", "OUTPUT UNIT": "%", "EXPERIMENTAL VALUE": 37.75}
{"SMILES TEXT": "Cc1ccc(C(=O)N2CCC3(CCCCC3)C2)c(=O)[nH]1", "QUANTITY": "INHIBITION", "OUTPUT UNIT": "%", "EXPERIMENTAL VALUE": -8.54}
{"SMILES TEXT": "CCc1nc(CN2CCCN(c3ncnc4ccccc34)CC2)no1", "QUANTITY": "INHIBITION", "OUTPUT UNIT": "%", "EXPERIMENTAL VALUE": -50.34}
{"SMILES TEXT": "O=c1c(S(=O)(=O)N2CCCCC2)cccn1Cc1ccccc1Cl", "QUANTITY": "INHIBITION", "OUTPUT UNIT": "%", "EXPERIMENTAL VALUE": -10.16}
{"SMILES TEXT": "CCc1nc(CN2CCCN(c3ncnc4ccsc34)CC2)no1", "QUANTITY": "INHIBITION", "OUTPUT UNIT": "%", "EXPERIMENTAL VALUE": 80}

With those in mind, consider the next compound.
Enquiry: Record request: INHIBITION value, item `NCCn1cc(C(=O)NCc2ccccc2Cn2cccn2)nn1`
Return: 62.3

* * *

- System: Plasmodium berghei
- MEASUREMENT NOTES: Screen against P. berghei liver stage (PbLuc), transformed with Luciferase, at 2uM
- Format: functional, HepG2
- SETUP CONDITIONS: tested at 2 uM
About 2,700 (4%) of roughly 68,000 compounds showed an effect of 50% or more. The sample as a whole holds a higher share of strong results than the screen did.
QUANTITY: INHIBITION
Write down the value, and be sure its unit follows.

Enquiry: Record request: INHIBITION value, item `Cc1cnc(-c2nc(-c3cccc(CN4CCOCC4)c3)no2)cn1`
Return: 15.74%

Enquiry: Record request: INHIBITION value, item CCOCC(O)CN1CCN(C(=O)c2cc(F)cc(F)c2)CC1 (stereo unspecified)
Return: -41.07%

Enquiry: Record request: INHIBITION value, item Cc1nccn1C1CCCN(C(=O)CCc2nc(C(C)C)no2)C1 (stereo unspecified)
Return: 21.71%

Enquiry: Record request: INHIBITION value, item CC(O)(CN1CCN(CCO)CC1)c1cccc(C(F)(F)F)c1 (stereo unspecified)
Return: -27.62%

Enquiry: Record request: INHIBITION value, item CC(=O)N1CCN(CC(C)(O)c2cccc(C(F)(F)F)c2)CC1 (stereo unspecified)
Return: 1.63%

Enquiry: Record request: INHIBITION value, item CCN1CCN(CC(C)(O)c2cccc(C(F)(F)F)c2)CC1 (stereo unspecified)
Return: 69.41%
